Values compiled from patent EP4624471A1.

# target.or.test.system: PKMYT1 enzyme (Homo sapiens)
# Construct: purchased Thermo Scientific A33387
# Sequence (Q99640 1-499): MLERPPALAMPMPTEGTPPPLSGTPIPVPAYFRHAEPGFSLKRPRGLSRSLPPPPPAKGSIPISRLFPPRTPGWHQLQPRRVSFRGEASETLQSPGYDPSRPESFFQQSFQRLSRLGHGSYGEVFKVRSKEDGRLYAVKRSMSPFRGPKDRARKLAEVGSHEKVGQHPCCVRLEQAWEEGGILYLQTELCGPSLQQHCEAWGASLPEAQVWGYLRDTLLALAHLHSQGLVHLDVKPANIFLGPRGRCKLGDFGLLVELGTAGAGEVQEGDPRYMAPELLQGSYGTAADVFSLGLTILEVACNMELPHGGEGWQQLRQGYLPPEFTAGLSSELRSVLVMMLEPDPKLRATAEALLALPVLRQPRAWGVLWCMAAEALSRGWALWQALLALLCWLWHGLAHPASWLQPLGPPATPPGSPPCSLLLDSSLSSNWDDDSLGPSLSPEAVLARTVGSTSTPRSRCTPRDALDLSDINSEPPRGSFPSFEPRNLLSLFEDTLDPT
# assay.method.text: PKMYT1 enzyme inhibition activity, ADP-GLO method
# Assay type: biochemical
# test.parameters: PKMYT1 enzyme 10 nM, ATP 5 µM, 37°C 90 minutes; read-out: ADP-GLO IC50
The following compounds are shown together with reported pIC50 values.
Notebook: values listed as pIC50 are -log10 of the concentration (mol/L).

Sample answers from the record:
Cc1ccc(O)c(C)c1-n1c(N)c(C(N)=O)c2c(F)nc(C)c(F)c21    8.01
Cc1cc(F)c(O)c(C)c1-n1c(N)c(C(N)=O)c2cc(OC3CCC3)c(C)nc21    8.03
Cc1c(O)cc(F)c(C)c1-n1c(N)c(C(N)=O)c2c(C)c3c(nc21)CCC3    7.07
Cc1ccc(O)c(C)c1-n1c(N)c(C(N)=O)c2cnc(C3CCCCC3)nc21    7.89
Cc1ccc(O)c(C)c1-n1c(N)c(C(N)=O)c2cnc(-c3ccccc3)nc21    7.80
CCNc1ncc2c(C(N)=O)c(N)n(-c3c(C)ccc(O)c3C)c2n1    8.26
Cc1ccc(O)c(C)c1-n1c(N)c(C(N)=O)c2cnc(C3=CCOCC3)nc21    7.93

Now examine the next entry.
Query: Tell me the measured pIC50 of CCc1nc2c(cc1C)c(C(N)=O)c(N)n2-c1c(C)c(O)cc(F)c1C , please.
Result: 8.00

====

# target.or.test.system: PKMYT1 enzyme (Homo sapiens, UniProt Q99640)
# Construct: purchased Thermo Scientific A33387
# assay.method.text: PKMYT1 enzyme inhibition activity, ADP-GLO method
# Assay type: biochemical
# test.parameters: PKMYT1 enzyme 10 nM, ATP 5 µM, 37°C 90 minutes; read-out: ADP-GLO IC50
pIC50: −log10 of the molar value.
Everything with pIC50 lower than 8 is False; everything else, including exactly 8, is True.

Cc1cc(F)c(O)c(C)c1-n1c(N)c(C(N)=O)c2cc(C3CC3)c(C)nc21 (single isomer, unassigned) [Example 141.1]    True
Cc1c(O)cc(F)c(C)c1-n1c(N)c(C(N)=O)c2cc(-c3ccccc3)cnc21 (atropisomer, axis not shown) [Example 119.1]    True

Query: Could you tell me if the measured pIC50 of CCc1cc2c(C(N)=O)c(N)n(-c3c(C)cc(F)c(O)c3C)c2nc1C (single isomer, unassigned) [Example 143.1] reaches 8 or more?
Result: False

Query: Reported pIC50 reaches at least 8 for Cc1ccc(O)c(C)c1-n1c(N)c(C(N)=O)c2cnc(N3CCOCC3)nc21 ?
Result: False

Query: Determine whether measured pIC50 meets or exceeds 8 for Cc1cc2c(C(N)=O)c(N)n(-c3c(C)c(O)cc(F)c3C)c2nc1C(C)C
Result: False

Query: Check this compound for pIC50 at or above 8: Cc1cc(F)c(O)c(C)c1-n1c(N)c(C(N)=O)c2cc(N3CCC3)c(C)nc21 (atropisomer, axis not shown) [Example 173.2]
Result: True

Query: Is reported pIC50 greater than or equal to 8 here: CCCc1ncc2c(C(N)=O)c(N)n(-c3c(C)ccc(O)c3C)c2n1
Result: True

Query: Can COc1ncc2c(C(N)=O)c(N)n(-c3c(C)ccc(O)c3C)c2n1 be said to have pIC50 at or above 8?
Result: False

Query: Hello, I need to know if Cc1cc2c(C(N)=O)c(N)n(-c3c(C)c(O)cc(F)c3C)c2nc1C (atropisomer, axis not shown) [Example 21] has measured pIC50 not below 8. Thanks!
Result: True

Query: Identify whether the reported pIC50 of the following compound is 8 or greater: Cc1cc(F)c(O)c(C)c1-n1c(N)c(C(N)=O)c2cc(Br)c(C)nc21 [Example 58]
Result: True

Query: # check: pIC50 of Cc1cc(F)c(O)c(C)c1-n1c(N)c(C(N)=O)c2cc3c(nc21)CCO3 is greater than or equal to 8
Result: False

Query: Does Cc1ccc(O)c(C)c1-n1c(N)c(C(N)=O)c2c3cnccc3c(C)cc21 (racemic) have a reported pIC50 of at least 8?
Result: True
